Provide the recorded GI50 for the entries that follow.
Tested on: M14
Assay: NCI tumour cell line growth inhibition, 48 h
Activity calls are given as the source filed them. Cut-off read from the data, not from the text of the source: active = GI50 up to about 1.1 µM and inactive = higher.

Lookup: Complete the entry with GI50 for COc1ccc(C(c2ccccc2)(c2ccc(OC)cc2)N2C(=O)NC3C(CCCCC(=O)NCCCCCCOP(OCCC#N)N(C(C)C)C(C)C)SCC32)cc1 (stereo unspecified)
Found: 18.4 µM (inactive)

Lookup: Look up and report measured GI50 for this entry: C/N=C1\OC2=C3C(c4ccccc4)(O/C(=N/C)N(C)C3(c3ccccc3)OC2=O)N1C (stereo unspecified)
Found: > 100 µM (inactive)

Lookup: Name the recorded GI50 of the item [O-]/[N+](=C\c1ccccc1OC(=S)S)c1ccc(Cl)cc1 in your answer.
Found: 24.2 µM (inactive)

Lookup: Using the record for O=C1c2c(Br)sc(Br)c2[C@H]2NC(=S)O[C@@H]12 , state its measured GI50.
Found: 14.3 µM (inactive)

Lookup: Return the recorded GI50 value; entry: COc1cccc(NC(=O)C(=O)C2C=CCS2(=O)=O)c1 (stereo unspecified)
Found: > 100 µM (inactive)

Lookup: # return recorded GI50 for input COc1cccc(/C(C=O)=C(\Cl)c2ccc(OC)c(OC)c2)c1
Found: 17.6 µM (inactive)

Lookup: Give GI50 for c1ccc(-c2c3c(nc4c2CC[C@H]4NC2=NCCN2)[C@@H](NC2=NCCN2)CC3)cc1
Found: > 100 µM (inactive)

Lookup: Given the molecule COC(=O)c1ccc(NCC2=CC(=O)C=CC2=O)cc1O , write its reported GI50.
Found: 20.9 µM (inactive)

Lookup: Name the recorded GI50 of the item c1ccc2cc3c(cc2c1)nc1ccccn13 in your answer.
Found: > 100 µM (inactive)

Lookup: Please supply the value of reported GI50 for the item CCNc1nc2c(=O)n(C)c(=O)n(C)c2s1
Found: > 100 µM (inactive)

Lookup: Output measured GI50 for this item: Cn1c(=O)c2/c(n(C)c1=O)=N\C=c1\c(=O)n(C)c(=O)n(C)\c1=N\C=2
Found: > 100 µM (inactive)

Lookup: Return GI50 (reported value) for this molecule: CC1(C)CN=C(c2ccc3ccccc3c2O)N1
Found: > 100 µM (inactive)

Lookup: For the molecule CNC1C(OC2C(OC3C(O)C(O)C(O)C(O)C3O)OC(C)C2(O)CO)OC(CO)C(O)C1O.N=C(N)N.NC(=O)O (stereo unspecified) , report GI50.
Found: > 100 µM (inactive)

Lookup: Name the recorded GI50 of the item CN1CCCS/C1=C1/SC(=S)N(c2ccccc2)C1=O in your answer.
Found: > 100 µM (inactive)

Lookup: Read the entry O=C(CC1(O)C(=O)Nc2ccc([N+](=O)[O-])cc21)c1ccc(Br)cc1 (stereo unspecified) and write its reported GI50.
Found: > 100 µM (inactive)

Lookup: Find the measured GI50 of CC1=C(Cl)C=CP(=O)(Oc2ccccc2)C1 (stereo unspecified) and report it.
Found: 19.1 µM (inactive)

Lookup: Supply GI50 value. Item: COc1ccc2[nH]c3c(C)c4c(c(C)c3c2c1)CN(C)C=C4
Found: 8.77 µM (inactive)

Lookup: Entry Fc1cc(-c2cc(-c3ccccc3)no2)c(Cl)cc1Cl needs its GI50 filled in; supply it.
Found: 23.1 µM (inactive)

Lookup: Note GI50 for the molecule shown: CC1(C)OCN(c2ccc(S(N)(=O)=O)cc2)Cn2c1nc1ccccc12
Found: > 100 µM (inactive)

Lookup: Tell me GI50 reported for C=C1CC(C)(COc2ccc3c(C)c(Cl)c(=O)oc3c2)OC1=O (stereo unspecified)
Found: 1.26 µM (inactive)

Lookup: Annotate the molecule COc1cccc(C2ON=C(c3ccccc3)N2C23CC4CC(CC(C4)C2)C3)c1 (stereo unspecified) with its measured GI50.
Found: > 10 µM (inactive)

Lookup: Return reported GI50. Input molecule: CCCCCCCCCc1cc(O)c(O)cc1CCCCCCCCC
Found: > 10 µM (inactive)

Lookup: Write down GI50 measured for item Cc1ccnc2nc(-c3ccc(F)cc3)cc(O)c12
Found: 28.4 µM (inactive)

Lookup: Please report the measured GI50 for CN1CCN(C(=S)N(C(=O)c2ccco2)C2CCCCC2)CC1
Found: > 100 µM (inactive)

Lookup: Read the entry Cc1cc(C)c2c(=O)n(CC(O)CN3CCN(c4ncccn4)CC3)sc2n1 (stereo unspecified) and write its reported GI50.
Found: 15.7 µM (inactive)

Lookup: Consider the molecule C=CCN1C(=O)NC(=O)/C(=C/c2c3ccccc3cc3ccccc23)C1=O . State its measured GI50.
Found: 16.2 µM (inactive)
